The values you see were collected from paper PMC5540273.

Task for the reader: assign each of the following molecules its reported %Inh.
Test system: PAK1;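 also: KINOMEscan kinase panel screen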
Conditions: concentration: 1 μM, replicates: in singlicate; n = 1
One number for each entry, in %.

Give %Inh for each of the items listed below.
1. Cc1ccccc1Cn1ccn2c(=O)cc(N3CCOCC3)nc12 [GSK2269905]
2. Cn1cnc2c(N)ncnc21 [SKF-97623]
3. Nc1cccc(-c2ccc3c(N)n[nH]c3c2)n1 [GSK2192730]
4. COc1ccc(CSc2nnc(-c3ccc4c(c3)CCO4)o2)cc1
5. COc1ccc(Nc2nccc(-c3ccc(NC(=O)c4cc5cc(F)ccc5[nH]4)cc3)n2)cc1 [GSK1229496]
6. COc1cccc(NC(=O)Nc2ccc(C)c(-c3ccc(C(=O)Nc4ccncc4)cc3)c2)c1 [GSK1398474]
7. Cc1ccc(NC(=O)Nc2ccccc2)cc1-c1ccc(C(=O)Nc2ccncc2)cc1 [GSK1398471]
8. Cc1cccc2c(-c3ccncn3)c(-c3ccc(F)cc3)nn12 [GW515532]

[12, 3, 16, 18, 0, 29, 20, 13]

Give %Inh for each of the items listed below.
1. Cc1c(Cn2c3ccccc3n3c(=O)cc(N4CCOCC4)nc23)cccc1C(F)(F)F [GSK2306394]
2. CNc1cc(-c2ccc3c(N)n[nH]c3c2)nc(N)n1 [GSK2224810]
3. Cn1cncc1-c1cc2c(Nc3ccc(OCc4ccccc4)cc3)ncnc2cn1 [GW281179]
4. NS(=O)(=O)c1cccc(N/C=C2\C(=O)Nc3ccc(S(=O)(=O)Cc4c(Cl)cccc4Cl)cc32)c1 [GSK398099]

12
0
10
0

Give %Inh for each of the items listed below.
1. COC(=O)C(Cc1ccccc1)NC(=O)NC1CCN(c2ccnc(Nc3ccc(F)cc3)n2)C1 (stereo not shown) [GSK1379714]
2. CNCc1ccc2nc(NC(=O)c3ccc(C(C)(C)C)cc3)cn2c1
3. COC(=O)C(NC(=O)NC1CCN(c2ccnc(Nc3ccc(F)cc3)n2)C1)c1ccccc1 (stereo not shown) [GSK1379712]

1. 9
2. 7
3. 0

Give %Inh for each of the items listed below.
1. COc1ccc(-c2coc3ccc(-c4nnc(C)o4)cc23)cc1
2. Cc1ccc(NC(=O)Nc2ccc(Cl)c(C(F)(F)F)c2)cc1-c1ccc(C(=O)Nc2ccncc2)cc1 [GSK1398470]
3. Cc1cnc(N)c(/C=C/c2cncc(C(=O)NCCc3ccc(Cl)cc3Cl)c2)c1.Cl [GSK190937]

1. 23
2. 19
3. 4

Give its %Inh value. Item: `CN1c2ccc(-c3ccc(C(N)=O)cc3)cc2-c2[nH]ncc2S1(=O)=O`
11
